In what follows, each item is paired with its IC50 for UniProtKB Q08499.
Just the number in µM, nothing appended.

INPUT: Which IC50 is reported for this compound? Cc1cccc(C(=O)O)c1/N=c1\sc(-c2ccc(Cl)cc2)nn1C
OUTPUT: 20.5

INPUT: Request: Cn1nc(-c2ccc(Cl)cc2)s/c1=N\C1CCCCC1
OUTPUT: 57

INPUT: Likewise for Cn1nc(-c2ccc(Cl)cc2)s/c1=N\c1c(O)cccc1C(=O)O ?
OUTPUT: 58.2

INPUT: Would you kindly repeat that for Cn1nc(-c2ccc(Cl)cc2)s/c1=N\c1ccccc1 ?
OUTPUT: 38

----------
As a worked illustration, we turn to pIC50 data collected for 3',5'-cyclic-AMP phosphodiesterase 4D (Homo sapiens, UniProt Q08499).
FYI, pIC50 means -log10 of a concentration in mol per litre.

Example results:
COC(=O)c1ccc(-c2nn(C)/c(=N/C3CCCCC3)s2)cc1 = 4.02
Cn1nc(-c2ccc(O)cc2)s/c1=N\C1CCCCC1 = 4.91
Cc1nc(N)c2ccc(-c3nn(C)/c(=N/C4CCCCC4)s3)cc2n1 = 4.03
Cn1nc(-c2cccc(O)c2)s/c1=N\C1CCCCC1 = 4.65
Cc1cc(-c2nn(C)/c(=N/C3CCCCC3)s2)ccc1C(N)=O = 4.35
Cn1nc(-c2cccc(S(N)(=O)=O)c2)s/c1=N\C1CCCCC1 = 4.82
Cn1nc(-c2ccc(Cl)cc2)s/c1=N\c1ccc(O)c(C(=O)O)c1 = 5.15

Next:
INPUT: Look at this compound and give its reported pIC50. Cn1nc(-c2ccc(Cl)cc2)s/c1=N\c1cccc(C(N)=O)c1
OUTPUT: 4.35
